- targetOfAssay: ABAD (Homo sapiens, UniProt Q99714)
- Construct: made in house
- Sequence (Q99714 whole entry): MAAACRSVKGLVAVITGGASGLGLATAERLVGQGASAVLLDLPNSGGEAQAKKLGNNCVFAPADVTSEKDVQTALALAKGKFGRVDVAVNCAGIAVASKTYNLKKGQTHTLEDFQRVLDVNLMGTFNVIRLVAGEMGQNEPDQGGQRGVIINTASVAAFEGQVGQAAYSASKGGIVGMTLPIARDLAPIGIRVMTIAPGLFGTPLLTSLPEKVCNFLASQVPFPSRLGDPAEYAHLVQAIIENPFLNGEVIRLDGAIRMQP
- testName: Binding of fluorescein-labeled ABAD to amyloid-related peptide immobilized on microtiter wells
- protocolConditions: peptide immobilized on microtiter wells, fluorescein-labeled ABAD added
Ends that are not written are not given here.
valueKind: Kd

Query: Recall and state the measured Kd for GSNKGAIIGLM [Aβ 25-35] .
Reply: > 1 µM

These measurements were taken from patent US8450454B2.
